Response by entry:
# testedOn: T1, recombinant human CD3 epsilon/delta heterodimer (human, UniProt P07766 23-126; P04234 22-105)
# T1 construct: Recombinant heterodimer used as analyte in Octet; also called hCD3 E/D; human CD3E/D
# experimentalDetails: BLI (Octet), mAb 5 ug/mL on FAB2G sensor, hCD3 E/D 200-50 nM
endpointName: Response

binder="ABL-CD3-81 (antibody, V domains shown, mAb purified from hybridoma; chimeric AlivaMab IgG (human VH, CH1 and upper hinge; mouse middle hinge, CH2, CH3; human light chain)) VH: QVQLQESGPGLVKPSQTLSLTCTVSGGSISSGGYYWSWIRQHPGKGLEWIGYIYYSGSTYYNPSLKSRVTISVDTSKDQFSLKLSSVTAADTAVYYCARERKTSLPFDIWGQGTMVTVSS VL: NFMLTQPHSVSESPGKTVTISCTRSSGSIASNYVQWYQQRPGSSPTTVIYEDNQRPSGVPDRFSGSIDSSSNSASLTISGLKTEDEAYYYCQSFDSSNRVFGGGTKLTVL" endpointresult=0.17
binder="ABL-CD3-79 (antibody, V domains shown, mAb purified from hybridoma; chimeric AlivaMab IgG (human VH, CH1 and upper hinge; mouse middle hinge, CH2, CH3; human light chain)) VH: EVQLVESGGGLVKPGGSLRLSCAASGFTVSNYSMNWVRQAPGKGLEWVSCISRSSSYIYYADSVKGRFTISRDNAKNSLFLQMNSLRAEDTAVYYCARERWELLYFDYWGQGTLVTVSS VL: QTVVTQEPSFSVSPGGTVTLTCGLSSGSVSTSYYPSWYQQTPGQAPRTLIYSTNTRSSGVPDRFSGSILGNKAALTITGAQADDESDYYCVLYMGSGIWVFGGGTKLTVL" endpointresult=0.22
binder="ABL-CD3-66 (antibody, V domains shown, mAb purified from hybridoma; chimeric AlivaMab IgG (human VH, CH1 and upper hinge; mouse middle hinge, CH2, CH3; human light chain)) VH: QVQLQESGPGLVKPSETLSLTCTVSGGSISSYYWSWIRQPAGKGLEWIGRIYASGSTYYNPSLKSRVTMSVDTSKNQFSLKLSSVTAADTAVYYCAREKRSRLYFDYWGQGTLVTVSS VL: NFMLTQPHSVSESPGKTVTISCTRSSGSIASNYVQWYQQRPGSSPTTVIYEDNQRPSGVPDRFSGSIDSSSNSASLTISGLKTEDEGDYYCQSYDRSNRVFGGGTKLTVL" endpointresult=0.41
binder="ABL-CD3-85 (antibody, V domains shown, mAb purified from hybridoma; chimeric AlivaMab IgG (human VH, CH1 and upper hinge; mouse middle hinge, CH2, CH3; human light chain)) VH: EVQLVESGGGLVKPGGSLRLSCAASGFTFSSYSMNWVRQAPGKGLEWVSSISRRSGYIYYADSVKGRFTLSRDNAKKSLYLQMNSLRAEDTAVYYCARDLNWAFDYWGQGTLVTVSS VL: NFMLTQPHSVSESPGKTVTISCTRSSGSIASNYVQWYQQRPGSSPTTVIYEDNHRPSGVPDRFSGSIDSSSNSASLTIAGLKTEDEADYYCQSCDSSNVVFGGGTKLTVL" endpointresult=0.042
binder="ABL-CD3-74 (antibody, V domains shown, mAb purified from hybridoma; chimeric AlivaMab IgG (human VH, CH1 and upper hinge; mouse middle hinge, CH2, CH3; human light chain)) VH: EVQLVESGGGLVKPGGSLRLSCAASGFTFSSYSMKWVRQAPGKGLEWVSSISSSSSYIYYADSVKGRFTISRDNAKNSLYLQMNSLRAEDTAVYYCARDRGELTLWYWGQGTLVTVSS VL: SYELTQPPSVSVSPGQTARITCSGDALPKKYAYWYQQKSGQAPVLVIYEDSKRPSGIPERFSGSSSGTMATLTISGAQVEDEADYYCYSTDSSGNHWVFGGGTKLTVL" endpointresult=0.24
